Assay: ST_JUDE: Cytotoxicity using luciferase to measure ATP as an indicator of the viability of human foreskin fibroblast cells (BJ)
Format: toxicity, cell-based
readout-kind: EC50

molecule | result
CCN(CC)CCn1c(=N)n(CC(O)c2ccc(Cl)c(Cl)c2)c2ccccc21 (stereo unspecified) | > 43.1 µM
O=C(Nc1cccc(Cl)c1N1CCOCC1)C(Cl)(Cl)Cl | > 30.2 µM
CCc1ccccc1NC(=O)C1c2ccccc2C(=O)N(CC(C)C)C1c1cccs1 (stereo unspecified) | > 43 µM
C=CCN1C=CC=C/C1=C\c1sc2ccccc2[n+]1CC | > 21.6 µM
CCCCCCn1c(=N)n(CC(O)COc2ccccc2C)c2ccccc21 (stereo unspecified) | 16.8 µM
CCN(C(C)=O)C1=C(N2CCOCC2)C(=O)c2ccccc2C1=O | 8.99 µM
C=CCn1c(=N)n(CC(O)c2ccc(Cl)c(Cl)c2)c2ccccc21 (stereo unspecified) | > 44.7 µM
Cc1ccc2c(c1)N(C)/C(=C/c1cccc[n+]1C)S2 | > 23 µM
CC1=NC2=C(C(=O)CC(c3ccc(Cl)cc3)C2)C(c2ccc(F)cc2)/C1=C(\O)OC(C)C (stereo unspecified) | > 39.8 µM
Cn1c(=O)c2c(-c3ccc(C(C)(C)C)cc3)n(-c3cc(Cl)ccc3O)cc2n(C)c1=O | > 39.5 µM
Cc1ccccc1/N=C1\C=C(NS(=O)(=O)c2ccc(F)cc2)c2ccccc2C1=O | 5.88 µM
CC(C)c1ccc(S(=O)(=O)NC2=C/C(=N\c3ccc(O)cc3)C(=O)c3ccccc32)cc1 | 3.58 µM
O=C(c1ccccc1)N1CCN(c2ccccc2NC(=O)C(Cl)(Cl)Cl)CC1 | > 33.7 µM
CCO/C(O)=C1\C(C)=NC2=C(C(=O)CC(c3ccc(OC)c(OC)c3)C2)C1c1cccc(C)c1 (stereo unspecified) | > 40.6 µM
CCc1nc2nc(C)cc(Nc3ccc(I)cc3)n2n1 | > 39.5 µM
COc1ccccc1/N=C1\C=C(NS(=O)(=O)c2ccc(C(C)C)cc2)c2ccccc2C1=O | > 34.5 µM
CCO/C(O)=C1\C(C)=NC2=C(C(=O)CC(c3ccc(OC)c(OC)c3)C2)C1c1ccc([N+](=O)[O-])cc1 (stereo unspecified) | > 43.9 µM
Cc1cccc(CN2CCC(CNC(=S)Nc3ccc4nc(N5CCN(C)CC5)cc(C)c4c3)CC2)c1 | 9.56 µM
Oc1ccc(C2NCc3ccccc3-n3cccc32)cc1Cl (stereo unspecified) | > 46 µM
c1ccc(CCNc2ccnc3cc4ccccc4cc23)cc1 | 6.62 µM
COc1ccc(C2CC3=NC(C)=C(C(=O)OC(C)C)C(c4ccccc4Cl)C3=C(O)C2)cc1OC (stereo unspecified) | > 41.2 µM
COc1cc(C2CC(=O)NC3=C2C(=O)CC(c2ccccc2Cl)C3)cc(Br)c1O (stereo unspecified) | > 54.2 µM
CCOC(=O)C1(Cc2cccc(F)c2)CCN(Cc2ccccc2O)CC1 | > 52.6 µM
CCOC(=O)C1=C(C)N=c2s/c(=C/c3ccccc3O)c(=O)n2C1c1ccccc1 (stereo unspecified) | > 36.6 µM
CO/C(O)=C1\C(C)=NC2=C(C(=O)CC(c3ccc(OC)c(OC)c3)C2)C1c1ccccc1F (stereo unspecified) | > 44.8 µM
Cc1ccc2c(c1)C=C/C(=C\c1sc3ccccc3[n+]1C)N2C | 7.95 µM
CCOc1ccc2nc(C)cc(Nc3ccc(Cl)cc3)c2c1 | 8.78 µM
CCCO/C(O)=C1\C(C)=NC2=C(C(=O)CC(c3ccc(OC)c(OC)c3)C2)C1c1ccccc1OC (stereo unspecified) | > 47 µM
CCOC(=O)C1(Cc2ccccc2)CCN(Cc2cccc(OC)c2O)CC1 | > 37 µM
CCOc1cc2c(cc1OCC)C(c1cc(C)c(O)c(C)c1)NCC2 (stereo unspecified) | > 52 µM
COc1ccc(Nc2cc(C)nc(Nc3ccc(NS(=O)(=O)c4ccc(OC)cc4)cc3)n2)cc1 | > 50.3 µM
Cc1ccc(C2CC(C(F)(F)F)n3nc(C(=O)N4CCN(C(c5ccccc5)c5ccccc5)CC4)cc3N2)cc1 (stereo unspecified) | > 42.7 µM
COc1ccc(C2CC(=O)NC3=C2C(=O)CC(c2ccc(F)cc2)C3)cc1OC (stereo unspecified) | > 41.4 µM
O=[N+]([O-])c1cc(CN2CCN(c3cccc(C(F)(F)F)c3)CC2)c2cccnc2c1O | > 31.9 µM
CCOC(=O)C1(Cc2ccc(Cl)cc2)CCN(Cc2ccccc2O)CC1 | > 56.9 µM
Cc1cc(C)nc(/N=C(\N)Nc2ccccc2O)n1 | > 34.2 µM
CCCCN(CCCC)CC(O)COc1ccccc1C(=O)Nc1ccccc1 (stereo unspecified) | > 53.2 µM
CCCO/C(O)=C1\C(C)=NC2=C(C(=O)CC(c3ccc(OC)cc3)C2)C1c1ccccc1Cl (stereo unspecified) | > 41.9 µM
Oc1ccc(Br)cc1CN1CCN(Cc2ccccc2F)CC1 | > 36.1 µM
CCc1ccc(S(=O)(=O)NC2=C/C(=N\c3ccccc3OC)C(=O)c3ccccc32)cc1 | 6.8 µM
CCCN(C(=O)C(=O)Nc1ccc2nc3n(c(=O)c2c1)CCCCC3)c1ccc(OCC)cc1 | > 47.3 µM

====

Test system: Plasmodium falciparum
Test: ST_JUDE: Plasmodium falciparum K1 EC50 (uM) as measured by SYBR green dye
Type: functional, organism-based
readout-kind: EC50 (µM)

compound | readout-kind | value-prefix | quantitative-result
CCCOc1cc(O)c(-c2[nH]nc(C)c2Oc2ccccc2)cc1CC | EC50 | = | 2.1
COc1ccc(CN2CCN(Cc3cc(Br)ccc3O)CC2)cc1OC | EC50 | = | 6.31
CCOc1cccc2sc(N(Cc3cccnc3)C(=O)C3CCCCC3)nc12 | EC50 | = | 2.23
CCOCCn1/c(=N/C(=O)COc2ccc(Cl)cc2)sc2cc(OCC)ccc21 | EC50 | > | 15
COc1ccc(C2C(C(=O)Nc3ccc(OC)cc3OC)c3ccccc3C(=O)N2C)cc1 (configuration not stated) | EC50 | = | 4.82
COCCn1c(SCC(=O)Nc2cccc(F)c2)nc2c(c1=O)SC(C)C2 (configuration not stated) | EC50 | > | 15
CCCOc1ccc(/C=C/c2ccc3cccc(O)c3n2)cc1 | EC50 | > | 15
C=CCOc1cccc(C(Nc2cc(C)ccn2)c2ccc3cccnc3c2O)c1 (configuration not stated) | EC50 | = | 4.09
COc1ccccc1/C=C/CN1CCC(C(Cc2ccccc2)N(C)C(=O)c2cc(C)nn2C)CC1 (configuration not stated) | EC50 | > | 15
COc1ccc2nc(N(Cc3cccnc3)C(=O)c3cccc(Cl)c3)sc2c1 | EC50 | > | 15
COc1ccc(CCNC(=S)Nc2cccc(Cl)c2)cc1OC | EC50 | = | 3.98
CCCCN(C)S(=O)(=O)c1ccc(C(=O)N(Cc2ccccn2)c2nc3ccccc3s2)cc1 | EC50 | > | 15
O=C(Nc1nc(-c2ccccn2)cs1)c1ccccc1[N+](=O)[O-] | EC50 | = | 6.94
O=C(c1cccc(Cl)c1)N1CCN(c2ccc([N+](=O)[O-])c(NC3CC3)c2)CC1 | EC50 | = | 3.68
COc1ccc(C2C(C(=O)Nc3cc(OC)ccc3OC)c3ccccc3C(=O)N2C)cc1 (configuration not stated) | EC50 | = | 6.96
CCCN1C(=O)c2[nH]nc(-c3c(C)cc(C)cc3O)c2C1c1cccc(OC)c1 (configuration not stated) | EC50 | = | 2.68
CCN(CC)CCNc1nc(Nc2ccc(F)cc2)c2cnn(-c3ccccc3)c2n1 | EC50 | = | 3.02
C#CCOc1ccc(C2C(C#N)=C(N)Oc3cc(O)ccc32)cc1OCC (configuration not stated) | EC50 | = | 10.2
Cc1cccc(NC(=O)c2cc3ccccc3cc2O)c1 | EC50 | = | 0.602
CCOc1ccc(Nc2c3ccccc3nc3ccccc23)cc1 | EC50 | = | 1.91
CCN(CC)CCCNC(=O)C1CCN(c2nc3c(C)cc(C)cc3s2)CC1 | EC50 | > | 15
Cc1cccc(-n2ccnc2SCC(=O)Nc2cc(C(F)(F)F)ccc2Cl)c1 | EC50 | > | 15

====

Assay: ST_JUDE: Cytotoxicity using luciferase to measure ATP as an indicator of the viability of human epithelial embryonic kidney cells (HEK293)
Type: toxicity, cell-based
readout-kind: EC50

compound | result
CCn1nc(-c2ccc(C(F)(F)F)cc2)nc2c(=O)n(C)c(=O)nc1-2 | > 50.1 µM
C=CC[n+]1c(C=C2C=CN(CC)C=C2)sc2ccccc21 | > 28.2 µM
COc1ccc(NC(=O)C2c3ccccc3C(=O)N(CC(C)C)C2c2cccs2)cc1 (stereo not given) | > 47.7 µM
Cc1ccc2c(c1)S/C(=C\c1sc3ccccc3[n+]1C)N2CCO | > 23.7 µM
CCCCCOc1ccc(N(C(C)=O)C2=C(N3CCCCC3)C(=O)c3ccccc3C2=O)cc1 | > 29.3 µM
CCOc1cc(C2CC(=O)NC3=C2C(=O)CC(c2ccc(OC)cc2)C3)cc(Cl)c1O (stereo not given) | > 44.4 µM
COc1ccc(NC(=O)C2c3ccccc3C(=O)N(CC(C)C)C2c2cccs2)cc1Cl (stereo not given) | > 40.4 µM
COc1ccc(C2CC3=NC(C)=C(C(=O)OC(C)C)C(c4ccccc4OC)C3=C(O)C2)cc1OC (stereo not given) | > 44.8 µM
COC(=O)C1=CNC=C(C(=O)OC)C1c1ccc(Cl)c(Cl)c1 | > 45.8 µM
CCCCCOc1ccc(N(C(C)=O)C2=C(N3CCOCC3)C(=O)c3ccccc3C2=O)cc1 | > 36.2 µM
